Give measured CC50 at 3 days for each item. Keep answers brief.
experiment: Cytotoxicity in HeLa cells (ATP content, ATPlite kit); format: cell-based; details: human, TOX HELA CC50
Provide the reading as a plain figure in µM.

Entry Cc1cc2cc(C(=O)NCC(O)(c3cc(C(C)(C)O)c(F)c(-c4ccc(F)cc4)n3)C3CC3)cc(OC(F)F)c2nn1 (single isomer, unassigned; (-)) [compound 260] : reported CC50 at 3 days = ?
19

// query: Cc1cnc2c(OC3CC3)cc(C(=O)NC[C@](O)(c3cc(C(C)(C)O)c(F)c(-c4ccc(F)cc4)n3)C3CC3)cc2c1 [compound 223]
21

Now give it for COc1cc(C(=O)NC[C@](O)(c2cc(C(C)(C)O)c(F)c(-c3ccc(F)cc3)n2)C(F)F)cc2cc(C3CC3)nnc12 [compound 293] too.
15

Check COc1cc(C(=O)NC[C@@](O)(c2cc(C(C)(C)O)c(F)c(-c3ccc(F)cc3)n2)C(F)(F)F)cc2cc(C)nnc12 [compound 334] too.
17

Same lookup for COc1cc(C(=O)NC[C@](O)(c2cc(C(C)(C)O)c(F)c(-c3ccc(F)cc3)n2)C2C[C@H]2F)cc2cc(C)nnc12 (single isomer, unassigned) [compound 300] , please.
27

Quick one: COc1cc(C(=O)NC[C@](O)(c2cc(C(C)(C)O)c(F)c(-c3ccc(F)c(F)c3)n2)C2CC2)cc2cc(C)c(F)nc12 [compound 218]
16

Same again, this time with COc1cc(C(=O)NCC(O)(c2cc(C(C)(C)O)c(F)c(-c3ccc(F)cc3)n2)[C@@H]2CC2(F)F)cc2cc(C)nnc12 (stereo in doubt) [compound 320]
24

Next: COc1cc(C(=O)NC[C@](O)(c2nc(-c3ccc(F)cc3)c(F)c(C(C)(C)O)c2F)C2CC2)cc2cc(C(F)F)nnc12 [compound 287]
37

Please give the result for COc1cc(C(=O)NC[C@](O)(c2cc(C(C)(C)O)c(F)c(-c3ccc(F)cc3)n2)C2(F)CC2)cc2cc(C)nnc12 [compound 296] too.
56

Also check COc1cc(C(=O)NC[C@](O)(c2nc(-c3ccc(F)cc3)c(F)c(C(C)(C)NC(C)=O)c2F)C(F)(F)F)cc2cc(C)nnc12 [compound 241]
50

Same thing, different compound: COc1cc(C(=O)NC[C@](O)(c2cc(C(C)(C)O)c(F)c(-c3ccc(F)cc3)n2)C(F)(F)F)cc2cc(C3CC3)nnc12 [compound 286]
8.9

----------
assay: Cytotoxicity in HeLa cells (ATP content, ATPlite kit); assay type: cell-based; conditions: human, TOX HELA CC50
Kindly note that classification relies on CC50 at 3 days with these boundaries: category 1: < 20 µM; category 2: ≥ 20 µM and < 40 µM; category 3: ≥ 40 µM

# bin label for COc1cc(C(=O)NC[C@@](O)(c2cc(C(C)(C)O)cc(-c3ccc(F)cc3)n2)C(C)(C)F)cc2cc(C)nnc12
category 3

Check COc1cc(C(=O)NC[C@](O)(c2cc(C(C)(C)O)c(F)c(-c3ccc(F)c(F)c3)n2)C(F)(F)F)cc2cc(C(F)F)cnc12 too.
category 1

Try this molecule too: COc1cc(C(=O)NC[C@](O)(c2nc(-c3ccc(F)cc3)c(F)c(C(C)(C)O)c2F)C2CC2)cc2cc(C3CC3)nnc12
category 2

Also, COc1cc(C(=O)NC[C@](O)(c2cc(C(C)(C)O)c(F)c(-c3ccc(F)cc3)n2)C2(C)CC2)cc2cc(C)nnc12 please.
category 3

Let us now turn to Cc1cnc2c(OC3CC3)cc(C(=O)NC[C@](O)(c3nc(-c4ccc(F)cc4)c(F)c(C(C)(C)O)c3F)C(F)(F)F)cc2c1
category 2

Could you do the same for Cc1cc2cc(C(=O)NC[C@](O)(c3cc(C(C)(C)O)c(F)c(-c4ccc(F)cc4)n3)C(F)(F)F)cc(OC3CC3)c2nn1 , please?
category 2

Follow-up item: COc1cc(C(=O)NC[C@](O)(c2cc(C(C)(C)O)c(Cl)c(-c3ccc(F)cc3)n2)C2CC2)cc2cc(C3CC3)nnc12
category 1

Ok, now COc1cc(C(=O)NC[C@@](O)(c2cc(C(C)(C)O)c(F)c(-c3ccc(F)cc3)n2)C2CC2)cc2cc(C)nnc12
category 1

COc1cc(C(=O)NC[C@](O)(c2nc(-c3ccc(F)cc3)c(Cl)c(C(C)(C)O)c2F)C(F)(F)F)cc2cc(C)nnc12 ?
category 3

Would you mind doing COc1cc(C(=O)NC[C@@](C)(O)c2cc(C(C)(C)O)c(Cl)c(-c3ccc(F)cc3)n2)cc2cc(C)nnc12 as well?
category 3

Further, for COc1cc(C(=O)NC[C@](O)(c2cc(C(C)(C)O)c(Cl)c(-c3ccc(F)cc3)n2)C(F)(F)F)cc2cc(C)c(F)nc12 ?
category 2

Quick one: COc1cc(C(=O)NC[C@](O)(c2cc(C(C)(C)O)c(Cl)c(-c3ccc(F)cc3)n2)C2CC2)cc2cc(C(F)F)nnc12
category 1

----------
system: rgRSV224 virus; assay: Antiviral activity: rgRSV224 (GFP) replication in HeLa cells; type: cell-based, respiratory syncytial virus (RSV); conditions: read-out: RSV HELA EC50; HeLa cells, rgRSV224 MOI = 1, GFP expression three days post-virus exposure; averaged data of several repeat experiments
property-measured: pEC50
Worth noting: pEC50 values are minus log10 of concentrations stated in mol/L.

Fill in: pEC50 of COc1cc(C(=O)NCC(O)(c2cc(C(C)(C)O)c(F)c(-c3ccc(F)cc3)n2)C(F)F)cc2cc(C)c(F)nc12 (single isomer, unassigned; (+)) [compound 213] is ___
6.28

Lookup COc1cc(C(=O)NCC(O)(c2cc(C(C)(C)O)c(F)c(-c3ccc(F)cc3)n2)C(F)F)cc2cc(C)cnc12 (single isomer, unassigned; (-)) [compound 204]
9.00

What about this molecule? COc1cc(C(=O)NCC(O)(c2cc(C(C)(C)O)c(F)c(-c3ccc(F)cc3)n2)C(F)F)cc2cc(C)c(F)nc12 (single isomer, unassigned; (-)) [compound 214]
8.85

Note, next up: Cc1cnc2c(OC3CC3)cc(C(=O)NC[C@](O)(c3cc(C(C)(C)O)c(F)c(-c4ccc(F)cc4)n3)C(F)(F)F)cc2c1 [compound 323]
8.42

Can you check Cc1cc2cc(C(=O)NC[C@](O)(c3cc(C(C)(C)O)c(F)c(-c4ccc(F)cc4)n3)C3(F)CC3)cc(OC3CC3)c2nn1 [compound 335] next?
7.68

One more molecule: COc1cc(C(=O)NCC(O)(c2cc(C(C)(C)O)c(F)c(-c3ccc(F)cc3)n2)C(F)F)cc2cc(C)cnc12 (single isomer, unassigned; (+)) [compound 203]
6.32

Quick one: Cc1cc2cc(C(=O)NC[C@](O)(c3cc(C(C)(C)O)c(F)c(-c4ccc(F)cc4)n3)C3(F)CC3)cc(OC3CC3)c2nn1 [compound 317]
9.06

Also COc1cc(C(=O)NCC(O)(c2cc(C(C)(C)O)c(F)c(-c3ccc(F)cc3)n2)C(F)F)cc2cc(C)nnc12 (single isomer, unassigned; (-)) [compound 250] ?
8.85

Try this molecule too: COc1cc(C(=O)NC[C@](O)(c2cc(C(C)(C)O)c(F)c(-c3ccc(F)cc3)n2)C(F)(F)F)cc2cc(C)nnc12 [compound 234]
9.09

----------
test: Cytotoxicity in HeLa cells (ATP content, ATPlite kit); format: cell-based; settings: human, TOX HELA CC50
property-measured: CC50 at 3 days (µM)
# output: bare number, implied unit µM

Which measured CC50 at 3 days value corresponds to COc1cc(C(=O)NC[C@](O)(c2cc(C(C)(C)O)c(F)c(-c3ccc(Cl)cc3)n2)C2CC2)cc2cc(C)cnc12 ?
14

Can you handle COc1cc(C(=O)NC[C@](O)(c2cc(C(C)(C)O)c(F)c(-c3ccc(F)cc3)n2)C2CC2)cc2cc(C(F)(F)F)nnc12 next?
16

Same thing, different compound: COc1cc(C(=O)NC[C@@](O)(c2nc(-c3ccc(F)cc3)c(F)c(C(C)(C)NC(C)=O)c2F)C(F)(F)F)cc2cc(C)nnc12
48

Query COc1cc(C(=O)NC[C@](O)(c2cc(C(C)(C)O)c(Cl)c(-c3ccc(F)cc3)n2)C2CC2)cc2cc(C)nnc12 next
28

Same thing, different compound: COc1cc(C(=O)NC[C@](O)(c2cc(C(C)(C)O)c(F)c(-c3ccc(C(F)(F)F)cc3)n2)C2CC2)cc2cc(C)c(F)nc12
14

What would you report for COc1cc(C(=O)NC[C@](O)(c2cc(C(C)(C)O)c(Cl)c(-c3ccc(F)cc3)n2)C(F)(F)F)cc2cc(C(F)F)nnc12 ?
14
